test system: HepG2; test: drug sensitivity score (DSS) for viability; higher = more toxic; extreme values may be limits of the assay; details: 72 h
Reported drug sensitivity score by item:
Form: value (number only, do not type unit).

CC(=O)Nc1cccc2c1c(Sc1ccc(Cl)cc1)c(C)n2CC(=O)O : 0
CC(=O)c1ccc2c(c1)N(CCCN1CCC(CCO)CC1)c1ccccc1S2 : 0.9
CCO[C@@H](Cc1ccc(OCCn2c(C)ccc2-c2ccc(SC)cc2)cc1)C(=O)O : 0

# next molecule below
Determine from records and report drug sensitivity score for O=C(NC1CCNCC1)[C@@H]1CC[C@@H]2CN1C(=O)N2OS(=O)(=O)O 0

* * *

Reported cell viability by item:
tested on: Vero E6; assay: cell viability relative to DMSO; higher = less toxic; conditions: 72 h; 1000 nM
Give the number; % is assumed, so skip it.

Completed entries (count: 7):
CN(C)CCOc1cc(-c2cn[nH]c2)ccc1NC(=O)C1COc2ccccc2O1 (stereo not drawn) [SR-3677] : 81.4
CC(C)C(=O)Nc1ccc([N+](=O)[O-])c(C(F)(F)F)c1 [flutamide] : 107
COc1ccc(-c2coc3cc(O)ccc3c2=O)cc1 [formononetin] : 105
COc1ccc(CCN)cc1OC [homoveratrylamine] : 97.5
CC[C@@]1([C@H]2O[C@H]([C@H]3O[C@@](O)(CO)[C@H](C)C[C@@H]3C)C[C@H]2C)CC[C@H]([C@@]2(C)CC[C@]3(C[C@H](O)[C@@H](C)[C@@H]([C@H](C)[C@H](OC)[C@@H](C)C(=O)O)O3)O2)O1 [MONENSIN SODIUM] : 103
Cc1cc(CC(C)CC(C)(C)C)n(O)c(=O)c1 (stereo not drawn) [piroctone-olamine] : 95.5
C[C@@H]1Cc2c([nH]c3ccccc23)[C@@H](c2c(F)cc(/C=C/C(=O)O)cc2F)N1CC(C)(C)F [AZD9496] : 101

# next compound below
Determine from records and report cell viability for O=C(N[C@@H]1Cc2ccccc2N(C[C@@H](O)CO)C1=O)c1cc2cc(Cl)sc2[nH]1 [GPi-688] 100
